ASSAY SYSTEM: PDE4B (Homo sapiens, UniProt Q07343)
Construct: active site fragment comprising the amino acids 152-484
Sequence (Q07343 324-656): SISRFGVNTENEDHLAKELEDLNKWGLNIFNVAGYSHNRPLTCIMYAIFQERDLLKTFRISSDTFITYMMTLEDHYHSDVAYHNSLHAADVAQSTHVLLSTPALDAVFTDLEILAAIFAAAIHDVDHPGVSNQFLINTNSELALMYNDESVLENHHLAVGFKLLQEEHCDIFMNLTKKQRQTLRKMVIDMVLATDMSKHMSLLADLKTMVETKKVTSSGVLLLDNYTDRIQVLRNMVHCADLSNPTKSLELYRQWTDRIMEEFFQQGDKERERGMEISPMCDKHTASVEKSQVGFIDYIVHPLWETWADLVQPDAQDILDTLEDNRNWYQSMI
MEASUREMENT DESCRIPTION: PDE4B Scintillation Proximity (SPA) Assay
MEASUREMENT CONTEXT: PDE4B active site fragment amino acids 152-484; [3H]cAMP; 30° C., one hour; read-out: Experimentally determined IC50-value for PDE4B inhibition
TEST READOUT: IC50 (nM)

a: [O-][S+]1CCc2nc(N3CCC(c4nc5c(o4)CCCC5)CC3)nc(NC3CCOCC3)c21 (centres unmarked)
b: CN(C(=O)c1ccc(OC2CCN(c3nc4c(c(NC5CCOCC5)n3)[S+]([O-])CC4)CC2)cc1)C1CC1 (centres unmarked)
c: Cn1nc(-c2ccco2)cc1C1CCN(c2nc3c(c(NC4CCOCC4)n2)[S+]([O-])CC3)CC1 (centres unmarked)
d: CN1C[C@@H](Nc2nc(N3CCC(c4ccc(Cl)cc4)CC3)nc3c2[S+]([O-])CC3)CCC1=O (some centres unmarked)
e: [O-][S+]1CCc2nc(N3CCC(c4ccc(F)cc4F)CC3)nc(NC3CCOCC3)c21 (centres unmarked)
Ask: Put the entries in order of IC50, starting with the largest number. Order the labels as requested and list them.
Reply: e, b, a, c, d

A: [O-][S+]1CCc2nc(N3CCC(c4ccc(Cl)cc4)CC3)nc(NC3(CO)CC3)c21 (centres unmarked)
B: [O-][S+]1CCc2nc(N3CCC(c4noc5ccccc45)CC3)nc(NC3(CO)CC3)c21 (centres unmarked)
Ask: Hi there, can you help? I need to know whether A or B has lower measured IC50. Lab log: write the label of the selected item as the result.
Reply: B

---

ASSAY SYSTEM: PDE4B (Homo sapiens)
Construct: active site fragment comprising the amino acids 152-484
MEASUREMENT DESCRIPTION: PDE4B Scintillation Proximity (SPA) Assay
MEASUREMENT CONTEXT: PDE4B active site fragment amino acids 152-484; [3H]cAMP; 30° C., one hour; read-out: Experimentally determined IC50-value for PDE4B inhibition
pIC50: −log10 of the molar value.
TEST READOUT: pIC50

- COMPOUND: "COCC(=O)NCC1(c2ccccc2)CCN(c2nc3c(c(NC4CCOCC4)n2)[S+]([O-])CC3)CC1 (stereo not shown)"
  RECORDED RESULT: 8.24
- COMPOUND: "Cn1nc(C2CCN(c3nc4c(c(NC5CCOCC5)n3)[S+]([O-])CC4)CC2)cc1-c1ccco1 (stereo not shown)"
  RECORDED RESULT: 7.68
- COMPOUND: "[O-][S+]1CCc2nc(N3CCC(CO)(c4ccc(Cl)cc4)CC3)nc(NC3CCOCC3)c21 (stereo not shown)"
  RECORDED RESULT: 8.74

A: N#Cc1ccc(OC2CCN(c3nc4c(c(NC5(CO)CC5)n3)[S+]([O-])CC4)CC2)cc1 (stereo not shown)
B: [O-][S+]1CCc2nc(N3CCC(c4noc5ccc(F)cc45)CC3)nc(NC3(CO)CC3)c21 (stereo not shown)
Ask: Decide: A or B , by lowest recorded pIC50. Answer by stating the label of the chosen item.
Reply: A
(A: 8.46, B: 8.72)
